These data points were gathered from PubChem BioAssay (Tox21).

- Assay Comment: qHTS assay to identify small molecule agonists of the sonic hedgehog signaling (Shh) pathway - cell viability counter screen (AID 1259366); note: nearly all actives have a fitted effect of over 50% in size
- Protocol Conditions: NIH/3T3 Gli1-Luc viability, CellTiter-Fluor, 24 h; series mostly up to 92.4 µM
Inconclusive results are not listed. Calls of active or inactive are those of the source. Calls come from the whole dose curve; as a rule, active = well fitted cell-killing curve with a large enough effect in the repeat runs; inconclusive = weak or mixed curves, or effect the other way; inactive = flat fitted curve, though single readings scatter.
The categories you may choose from are active, inactive

COC(=O)c1ccccc1S(=O)(=O)NC(=O)Nc1nc(C)nc(OC)n1 : inactive

I'd appreciate the recorded outcome for `Cc1c([N+](=O)[O-])cc2c(c1[N+](=O)[O-])C(C)(C)CC2(C)C` from this test.
inactive

I'd appreciate the recorded outcome for `CCC[CH2][Sn]([CH2]CCC)([CH2]CCC)[CH2]CCC` from this test.
active

I'd appreciate the recorded outcome for CNC(=O)O/N=C(\C)C(C)S(C)(=O)=O (configuration not stated) from this test.
inactive

I'd appreciate the recorded outcome for `Clc1cc(Cl)c(-c2cc(Cl)c(Cl)cc2Cl)cc1Cl` from this test.
inactive

I'd appreciate the recorded outcome for `C[C@H]1[C@H](c2ccc(Cl)cc2)SC(=O)N1C(=O)NC1CCCCC1` from this test.
inactive

I'd appreciate the recorded outcome for `Cc1cc2c3c(c1)C(c1ccccc1)=N[C@@H](NC(=O)c1ccncc1)C(=O)N3CC2` from this test.
inactive

I'd appreciate the recorded outcome for `Cc1nn(-c2cc(NS(C)(=O)=O)c(Cl)cc2Cl)c(=O)n1C(F)F` from this test.
inactive

I'd appreciate the recorded outcome for CCCCC(CC)COC(=O)OOC(C)(C)C (configuration not stated) from this test.
inactive

I'd appreciate the recorded outcome for CN1[C@@H]2CC[C@H]1CC(O)C2 (some centres not stated) from this test.
inactive

I'd appreciate the recorded outcome for `CCc1cccc(C)c1N(C(=O)CCl)[C@@H](C)COC` from this test.
inactive

I'd appreciate the recorded outcome for `CNN` from this test.
inactive

I'd appreciate the recorded outcome for `CN1CCc2cc(Cl)c(O)cc2[C@H]2c3ccccc3CC[C@@H]21` from this test.
active

I'd appreciate the recorded outcome for `Nc1nc(N)nc(Cl)n1` from this test.
inactive

I'd appreciate the recorded outcome for `CC[C@H](C)[C@H]1O[C@]2(C=C[C@@H]1C)C[C@@H]1C[C@@H](C/C=C(\C)[C@@H](O[C@H]3C[C@H](OC)[C@@H](O[C@H]4C[C@H](OC)[C@@H](NC)[C@H](C)O4)[C@H](C)O3)[C@@H](C)/C=C/C=C3\CO[C@@H]4[C@H](O)C(C)=C[C@@H](C(=O)O1)[C@]34O)O2` from this test.
active

I'd appreciate the recorded outcome for `[Cl][Hg][c]1ccccc1` from this test.
active

I'd appreciate the recorded outcome for `O=C(N[C@H]1N=C(c2ccccc2F)c2cccc3c2N(CC3)C1=O)c1cc2ccccc2[nH]1` from this test.
inactive

I'd appreciate the recorded outcome for `C=CCOC(=O)c1ccccc1N` from this test.
inactive

* * *

- Assay Comment: qHTS assay to identify small molecule agonists of the constitutive androstane receptor (CAR) signaling pathway - cell viability counter screen (AID 1224836); note: nearly all actives have a fitted effect of over 45% in size
- Protocol Conditions: HepG2-CYP2B6-hCAR viability, CellTiter-Fluor, 23 h, PK11195 added to every well; series mostly up to 92.4 µM
Results filed as inconclusive are left out. Active and inactive are the calls of the source. Calls come from the whole dose curve; as a rule, active = well fitted cell-killing curve with a large enough effect in the repeat runs; inconclusive = weak or mixed curves, or effect the other way; inactive = flat fitted curve, though single readings scatter.
The categories you may choose from are true (active), false (inactive)

# count of solved cases: 2
CN1C2CCC(C)(C)C1CC(OC(=O)C(O)(c1cccs1)c1cccs1)C2 (stereo not drawn) : false
Cc1ccc2cc3c(ccc4ccccc43)c3c2c1CC3 : false

Now for another entry.
I'd appreciate the recorded outcome for `CNC(=O)/C=C(\C)OP(=O)(OC)OC` from this test.
false
